Tested on: CCRIS mutagenicity, Ames/micronucleus/aberration tests
test.method.notes: CCRIS mutagenicity studies
measurement.context: Test System: AMES SALMONELLA TYPHIMURIUM; Strain/Indicator: TA100; Metabolic Activation: RAT, LIVER, S-9, AROCLOR 1254; Method: STANDARD PLATE
Calls of active or inactive are those of the source. No rule for the calls is given here.
Respond only with the outcome that fits, drawn from true (1) = active, false (0) = inactive

What did the test return for CCN(CC)c1ccc(N=Nc2ccc([N+](=O)[O-])cc2)cc1 ?
false (0)

Look up the recorded call for Cl/C=C(/Cl)c1c(Cl)c(Cl)c(Cl)c(Cl)c1Cl in this test.
false (0)

Fill in: this test's call for CN(C)c1ccc(/C=C/C(=O)c2ccccc2)cc1 is ___
false (0)

Dear colleague, could you share the recorded outcome for ClC(Cl)=Cc1c(Cl)c(Cl)c(Cl)c(Cl)c1Cl when you have a moment?
false (0)

Which result was noted for this compound in the test: O=S(O)(O)=S
false (0)

Would you mind telling me which call this test gave Cc1ccc2nc3c(ccc4ccccc43)c(CO)c2c1 ?
true (1)

Tell me the recorded outcome of this test for NNC(=O)CNc1ccc2ccccc2c1 .
false (0)

What outcome does the record of this test show for CC(Cl)CCl (stereo not drawn) ?
true (1)

# outcome recorded in this test, key = CC(C(=O)O)c1ccc(Oc2nccs2)cc1 (stereo not drawn)
false (0)

Please indicate how the test categorized Nc1nc2cc(Cl)c(Cl)cc2s1 .
false (0)

Recorded call for c1cc2ccc3cccc4ncc(c1)c2c34 ?
true (1)

Recorded test call requested for CCCOc1cc2c(c3ccc4ccccc4c13)CCC2=O
false (0)

Short answer needed: outcome of this test for OC[C@@H](O)[C@@H](O)[C@H](O)[C@H](O)CO ?
false (0)

Please indicate how the test categorized Cc1cc(C(=O)NNCc2ccccc2)no1 .
false (0)

Dear all, I need the recorded test outcome for O=[N+]([O-])/C(Br)=C\c1ccccc1 , thank you.
false (0)

Please let me know the test result on file for Nc1cc2c3ccccc3ccc2c2ccccc12 .
true (1)

GET /call?item= NCCNCCN returns the recorded outcome of this test.
false (0)

Recorded test call requested for CN1C(=O)CN=C(c2ccccc2)c2cc(Cl)ccc21
false (0)

# outcome recorded in this test, key = CN(C)C(=O)c1nc(CNC(=O)CN)n(-c2ccc(Cl)cc2C(=O)c2ccccc2Cl)n1
false (0)

For c1ccc2c(c1)ccc1c2ccc2cccnc21 , what call appears in the results of this test?
true (1)

How did this test come out for O=C(O)c1cccc2cccnc12 ?
false (0)

Hi, do you know how ClNc1nc(NCl)nc(NCl)n1 came out in this test?
false (0)

Hi, do you know how CN(C)CC/C=C1\c2ccccc2COc2ccccc21 came out in this test?
false (0)

====

Test system: CCRIS mutagenicity, Ames/micronucleus/aberration tests
test.method.notes: CCRIS mutagenicity studies
measurement.context: Test System: AMES SALMONELLA TYPHIMURIUM; Strain/Indicator: TA1535; Metabolic Activation: RAT, LIVER, S-9, AROCLOR 1254 (10%); Method: PREINCUBATION
Activity calls are given as the source filed them. How the calls were made is not given here.
Can you answer with just one of these options? 1.0 = active, 0.0 = inactive

Which outcome did this test record for the compound CCS(=O)CCSP(=O)(OC)OC (stereo not drawn) ?
1.0

Short answer needed: outcome of this test for O=C(Oc1ccccc1)c1ccccc1O ?
0.0

Recorded call for C=CC(=O)NCNC(=O)C=C ?
0.0

Give the logged outcome of this assay for the following compound: CCN(CC)CC
0.0

So what was the verdict on O=[N+]([O-])c1ccccc1CCO in this test?
0.0

Call for entry CC(C)(COCC1CO1)COCC1CO1 (stereo not drawn) :
1.0

How did this test come out for C=CC(=O)OCCCC ?
0.0

Lab log entry: CCC(CO)[N+](=O)[O-] (stereo not drawn) — outcome as called in the assay?
0.0

Which result was noted for this compound in the test: COc1cc(-c2ccc(N/N=C3\C(=O)c4c(O)cc(S(=O)(=O)O)cc4C=C3S(=O)(=O)O)c(OC)c2)ccc1N/N=C1\C(=O)c2c(O)cc(S(=O)(=O)O)cc2C=C1S(=O)(=O)O
0.0

What is the recorded call for this compound in the test? FC(F)(F)C(Cl)Br (stereo not drawn)
0.0

Could you please tell me the result logged for CCCCCCC=O in this assay?
0.0

Outcome logged for C=C[Si](OCC)(OCC)OCC in this assay:
0.0

// param item: Nc1ccc(/C=C/c2ccc(N)c(S(=O)(=O)O)c2)c(S(=O)(=O)O)c1 ; yields the recorded call
0.0

What did the test return for c1ccc(N=NNc2ccccc2)cc1 ?
0.0

Field: outcome | Entry: CCN1CCOCC1
1.0

Kindly provide the recorded test outcome for the following compound: O=C1c2c(O)cccc2Cc2cccc(O)c21
0.0

Answer briefly: the call reported for CCCCCCCC(=O)O in this assay.
0.0

Given C=C(C)C(=O)OCC , state the outcome it received in this test.
0.0

Status in this test for NC(N)=NC(N)=NCCc1ccccc1 ?
0.0

Identify the outcome logged in this assay for the compound shown: CC(C)OCC1CO1 (stereo not drawn)
1.0

What outcome does the record of this test show for Cc1ccc(S(=O)(=O)Oc2ccc(N=Nc3ccc(-c4ccc(N=Nc5c(O)ccc6cc(S(=O)(=O)O)cc(S(=O)(=O)O)c56)c(C)c4)cc3C)cc2)cc1 ?
0.0

Just curious, what result did CC(=O)c1c(=O)cc(C)oc1=O get here?
0.0

Tell me the assay call for CCCCCCCCn1sccc1=O please.
0.0

Recorded test outcome, item O=[N+]([O-])c1ccc(CCO)cc1
1.0

Entry Nc1n[nH]c(N)n1 : call = ?
0.0

Assay result, entry CCCCCCCCCCCCOCCO — outcome?
0.0

Given OCCN1CN(CCO)CN(CCO)C1 , state the outcome it received in this test.
0.0

Give the logged outcome of this assay for the following compound: O=c1[nH]c(=O)n(Cl)c(=O)n1Cl
0.0

====

System: CCRIS mutagenicity, Ames/micronucleus/aberration tests
test.method.notes: CCRIS mutagenicity studies
measurement.context: Test System: AMES SALMONELLA TYPHIMURIUM; Strain/Indicator: TA98; Metabolic Activation: NONE; Method: PREINCUBATION
Activity calls are given as the source filed them. No rule for the calls is given here.
Give one outcome, nothing more. List: active, inactive

# outcome recorded in this test, key = CCCCCCCCCCCCc1ccccc1
inactive

Just curious, what result did O=[N+]([O-])c1ccc2c(c1)oc1ccc([N+](=O)[O-])cc12 get here?
active

Recorded test call requested for c1ccc2cnccc2c1
inactive

Can you look up the reported call for Nc1ccc2nc3ccc(N)cc3nc2c1 for me?
inactive

Identify the outcome logged in this assay for the compound shown: [Cl][Pd-2]([Cl])([Cl])[Cl]
inactive

Outcome logged for Cc1nc2ccc(N)c(C)c2nc1C in this assay:
inactive

// outcome(item) with item = CC(=O)c1ccccc1
inactive

====

Tested on: CCRIS mutagenicity, Ames/micronucleus/aberration tests
test.method.notes: CCRIS mutagenicity studies
measurement.context: Test System: AMES SALMONELLA TYPHIMURIUM; Strain/Indicator: TA98; Metabolic Activation: RAT, LIVER, S-9, AROCLOR 1254; Method: STANDARD PLATE
From the text: The CCRIS database contains chemical records with carcinogenicity, mutagenicity, tumor promotion, and tumor inhibition test results. It was developed by the National Cancer Institute (NCI). Data are derived from studies cited in primary journals, current awareness tools, NCI reports, and other sources. Test results have been reviewed by experts in carcinogenesis and mutagenesis. CCRIS provides historical information from the years 1985 - 2011. It is no longer updated. […]
Active and inactive are the calls of the source. The rule behind the calls is not given here.
Output constraint: value belongs to active, inactive

# lookup: test call for CC(C)(O)CCc1ccc(O)c2c(=O)c3c(O)c4c(cc3oc12)O[C@H]1OC=C[C@@H]41
active

Short answer needed: outcome of this test for Cc1ccccc1OCC(O)CNCCOc1ccc(C(N)=O)cc1 (stereo not drawn) ?
inactive

What was the test verdict on C1=CC2=C3OC3=C3c4ccc5ccccc5c4CC(=C1)C23 (stereo not drawn) ?
active

GET /call?item= O=Cc1c2ccccc2cc2ccccc12 returns the recorded outcome of this test.
inactive

Name the outcome recorded for COc1cc(N=Nc2ccc(N(CCO)CCO)cc2)ccc1N=Nc1c(S(=O)(=O)O)cc2ccc(N)cc2c1O in the assay.
active

Hey, what did the test say about CCOCOCC ?
inactive

Test call for this compound, please: O=[N+]([O-])c1cc(O)c2ccc3cccc4ccc1c2c34
active

Hey, what did the test say about COc1cc(NC(C)=O)ccc1NC(C)=O ?
inactive

Per the assay record, what outcome was assigned to O=[N+]([O-])c1ccc2c3c(cccc13)CC2 ?
active

What classification did Nc1nc2ccc([N+](=O)[O-])cc2s1 end up with in this test?
active

Dear all, I need the recorded test outcome for ClNc1ccc2c(c1)Cc1ccccc1-2 , thank you.
active

GET /call?item= CC[C@H]1OC(=O)[C@H](C)[C@@H](O[C@H]2C[C@@](C)(OC)[C@@H](O)[C@H](C)O2)[C@H](C)[C@@H](O[C@@H]2O[C@H](C)C[C@H](N(C)C)[C@H]2O)[C@](C)(O)C[C@@H](C)CN(C)[C@H](C)[C@@H](O)[C@]1(C)O returns the recorded outcome of this test.
inactive

Assay outcome for c1cc2ccc3cccc4ncc(c1)c2c34 : what was it?
active

Would you mind telling me which call this test gave Cc1cc(C)cc(C)c1 ?
inactive

Write down the call the test reported for this compound. Item: CC(C(=O)O)c1ccc(Oc2nccs2)cc1 (stereo not drawn)
inactive

What classification did CCc1cc(Cc2cc(C)c(N)c(CC)c2)cc(C)c1N end up with in this test?
inactive

Which result was noted for this compound in the test: Cc1nc2c(c3[nH]c4ccccc4c13)C(=O)C=C(N1CC1)C2=O
active

Per the records of this test, what outcome belongs to O=[N+]([O-])c1cc2ccc3cccc4ccc(c1O)c2c34 ?
active

Answer briefly: the call reported for N#CC(Cl)Br (stereo not drawn) in this assay.
inactive

Given c1cc2ccc3ccnc4ccc(c1)c2c34 , state the outcome it received in this test.
active

Outcome? C=CC(=O)OCCCC
inactive

Please indicate how the test categorized O=c1cn[nH]c(=O)[nH]1 .
active

What classification did CC(C)N(C(=O)SC/C(Cl)=C/Cl)C(C)C end up with in this test?
active
